// provenance: ChEMBL document CHEMBL1158158

The entries below are paired with their reported Cmax.
experiment: Cmax in Sprague-Dawley rat at 10 mg/kg, po; format: ADME, organism-based; design: dose 10 mg/kg, route oral; settings: in vivo
Measurement type: Cmax

> print(dat)
                              line.notation  endpoint.result
1  Cc1ccc(NC(=O)c2cccc(C(F)(F)F)c2)cc1C(=O)Nc1cncnc1        861 ng/mL
2  Cc1ccc(C(=O)NCCC2CCCC2)cc1C(=O)Nc1ccc(N)nc1        518 ng/mL
3  Cc1ccc(C(=O)Nc2cccc(C(F)(F)F)c2)cc1C(=O)Nc1ccc(N)nc1        956 ng/mL
4  Cc1ccc(C(=O)Nc2cccc(C(F)(F)F)c2)cc1C(=O)Nc1cncnc1          8 ng/mL
